pIC50: −log10 of the molar value.
Kindly find below pIC50 information for UniProtKB P51639 taken from the literature.
readoutType: pIC50

[[record]]
compound = "COC(=O)c1c(C(=O)OC)c(C(C)C)n(CC[C@@H]2C[C@@H](O)CC(=O)O2)c1-c1ccc(F)cc1 (relative stereo)"
cmp = "="
valueobserved = 7.10

[[record]]
compound = "CC(C)c1oc2cccc(-c3ccc(F)cc3)c2c1/C=C/[C@@H](O)C[C@@H](O)CC(=O)O"
cmp = "="
valueobserved = 6.13

[[record]]
compound = "CCOC(=O)C[C@H](O)C[C@H](O)/C=C/c1c(C(C)C)nc2ccccc2c1-c1ccc(F)cc1 (relative stereo)"
cmp = "="
valueobserved = 6.39

[[record]]
compound = "CC(C)(C)c1cc(SC[C@@H](O)C[C@@H](O)CC(=O)O)cc(C(C)(C)C)c1O"
cmp = "="
valueobserved = 4.27

[[record]]
compound = "Cc1cc(C)c(OC[C@@H]2C[C@@H](SCCO)CC(=O)O2)c(CCCOc2ccc(F)cc2)c1"
cmp = "="
valueobserved = 6.00

[[record]]
compound = "CC(C)c1cccc2c(-c3ccc(F)cc3)c(/C=C/[C@@H](O)C[C@@H](O)CC(=O)O)oc12 (relative stereo)"
cmp = "="
valueobserved = 6.05

[[record]]
compound = "Cc1cc(-c2c(CC[C@@H](O)C[C@@H](O)CC(=O)O)oc3c(C(C)C)cccc23)ccc1F (relative stereo)"
cmp = "="
valueobserved = 6.66

[[record]]
compound = "CCOC(=O)CC(O)CC(O)/C=C/[C@@H]1[C@@H](c2cccc3ccccc23)[C@@H](C)C=C[C@H]1C (some centres unmarked)"
cmp = "="
valueobserved = 5.25

[[record]]
compound = "CCC(C)C(=O)OC1CCC(=NOCc2ccccc2)C2=CC(=O)C(C)C(CCC(O)CC(O)CC(=O)OCc3ccccc3)C21 (centres unmarked)"
cmp = "="
valueobserved = 7.48

[[record]]
compound = "C[C@@H]1C=C[C@H](C)[C@H](c2ccc(F)cc2)[C@H]1/C=C/C1CC(O)CC(=O)O1 (some centres unmarked)"
cmp = "="
valueobserved = 5.09

[[record]]
compound = "CC1CC(C)CC(OC(=O)[C@@H]2CCC(=O)N2)C1 (some centres unmarked)"
cmp = "="
valueobserved = 6.40

[[record]]
compound = "Cn1c(/C=C/[C@H]2C[C@@H](O)CC(=O)O2)c(-c2ccc(F)cc2)c2cccc(OCc3ccccc3)c21 (relative stereo)"
cmp = "<"
valueobserved = 3.00

[[record]]
compound = "COC(=O)C[C@H](O)C[C@H](O)/C=C/c1c(-c2ccc(F)cc2)cn(C(C)C)c1C (relative stereo)"
cmp = "="
valueobserved = 7.15

[[record]]
compound = "O=C1C[C@@H](O)C[C@H](CCn2c(-c3ccc(F)cc3)c(C(=O)Nc3ccccc3)c(-c3ccccc3)c2C(F)(F)F)O1 (relative stereo)"
cmp = "="
valueobserved = 6.40


* * *

Kindly find below pIC50 information for 3-hydroxy-3-methylglutaryl-coenzyme A reductase (Rattus norvegicus) taken from the literature.
pIC50: −log10 of the molar value.
readoutType: pIC50

[[record]]
compound = "CC(C)c1c(/C=C/[C@@H](O)C[C@@H](O)CC(=O)O)c(-c2ccc(F)cc2)cn1C1CCCCC1 (relative stereo)"
readouttype = "pIC50"
valueobserved = 7.92

[[record]]
compound = "CCOC(=O)CC(O)CC(O)/C=C/C1=C(c2ccc(F)cc2)c2ccccc2C12CC2 (stereo not shown)"
readouttype = "pIC50"
valueobserved = 7.72

[[record]]
compound = "Cn1c(/C=C/C(O)CC(O)CC(=O)O)c(-c2ccc(F)cc2)c2ccc(OCc3ccccc3)cc21 (stereo not shown)"
readouttype = "pIC50"
valueobserved = 7.05

[[record]]
compound = "O=C1CC(O)CC(/C=C/[C@@H]2CC=CC[C@H]2c2ccc(Cl)cc2)O1 (stereo partly shown)"
readouttype = "pIC50"
valueobserved = 3.35

[[record]]
compound = "CC(C)c1c(Cl)c(Cl)c(-c2ccc(F)cc2)n1CC[C@H]1C[C@H](O)CC(=O)O1 (relative stereo)"
readouttype = "pIC50"
valueobserved = 7.62

[[record]]
compound = "CCOC(=O)CC(O)CC(O)/C=C/c1c(C)c2ccccc2n1-c1ccccc1 (stereo not shown)"
readouttype = "pIC50"
valueobserved = 5.79

[[record]]
compound = "Cn1nnnc1C(/C=C/[C@@H](O)C[C@@H](O)CC(=O)O)=C(/c1ccc(F)cc1)c1cc2ccccc2o1 (relative stereo)"
readouttype = "pIC50"
valueobserved = 7.05

